Listed here: items and their measured melting point.

Illustrative cases are given below, each with its answer.
{"columns": ["molecule", "recorded_result"],
 "data": [
  ["COC(=O)c1nn(Cc2cccc(NC(=O)OC(C)(C)C)c2)c2c1CCc1cc(OCc3cncnc3)ccc1-2", "221 to 222 °C"],
  ["Cc1cccc(C(=O)NC(Nc2c(Nc3cccnc3)c(=O)c2=O)C(C)(C)Cc2ccccc2)c1 (centres undefined)", "234 to 235 °C"],
  ["CCOC(=O)C1=C(C)NC(C)=C(C(=O)OCC)C1c1ccccc1C", "128 to 130 °C"]
]}

// melting point lookup, key: "O=C(NCc1ccc2c(c1)OCO2)c1ccc2[nH]c(=O)n(Cc3cccs3)c(=O)c2c1"
270 °C

// melting point lookup, key: "COc1cccc(Cn2c(-c3ccccc3)nc(Cl)c2CC(=O)O)c1"
135 to 138 °C

// melting point lookup, key: CC(C)CCCC(C)C1CCC2C3CCC4CC(OC(=O)c5ccccc5)CCC4(C)C3CCC12C (centres undefined)
215 to 216 °C

// melting point lookup, key: "CSC[C@H](C)NC(=O)c1c(Cl)cccc1C(=O)Nc1ccc(Cn2c(C)nnc2C(F)(F)F)cc1C"
168 to 170 °C

// melting point lookup, key: "O=S(=O)(Nc1cc(Cl)c(Cl)cc1Cl)C(F)(F)F"
104 to 106 °C

// melting point lookup, key: "Cc1ccc(C)c(Oc2ccc(C#N)cc2S(=O)(=O)N2CCNCC2)c1"
60 to 72 °C

// melting point lookup, key: "CCCCc1nc(Cl)c(C(=O)OC(C)C)n1Cc1ccc2oc(-c3ccccc3-c3nnn[nH]3)c(Br)c2c1"
105 to 106 °C

// melting point lookup, key: "CCOC(=O)c1ccc(N(CC)Cc2ccc(Cl)cc2)cc1"
48 to 50 °C

// melting point lookup, key: "CCN(CC)c1nc(Cl)nc2ccccc12"
68 to 70 °C
